- TARGET_SYSTEM: FAAH (Rattus norvegicus, UniProt P97612)
- Construct: Preparation of Rat Brain Membranes Preparations (FAAH Enzyme Solution); from tissue; host or cells: rat cerebrum (brain membrane preparation)
- Sequence (P97612 1-579): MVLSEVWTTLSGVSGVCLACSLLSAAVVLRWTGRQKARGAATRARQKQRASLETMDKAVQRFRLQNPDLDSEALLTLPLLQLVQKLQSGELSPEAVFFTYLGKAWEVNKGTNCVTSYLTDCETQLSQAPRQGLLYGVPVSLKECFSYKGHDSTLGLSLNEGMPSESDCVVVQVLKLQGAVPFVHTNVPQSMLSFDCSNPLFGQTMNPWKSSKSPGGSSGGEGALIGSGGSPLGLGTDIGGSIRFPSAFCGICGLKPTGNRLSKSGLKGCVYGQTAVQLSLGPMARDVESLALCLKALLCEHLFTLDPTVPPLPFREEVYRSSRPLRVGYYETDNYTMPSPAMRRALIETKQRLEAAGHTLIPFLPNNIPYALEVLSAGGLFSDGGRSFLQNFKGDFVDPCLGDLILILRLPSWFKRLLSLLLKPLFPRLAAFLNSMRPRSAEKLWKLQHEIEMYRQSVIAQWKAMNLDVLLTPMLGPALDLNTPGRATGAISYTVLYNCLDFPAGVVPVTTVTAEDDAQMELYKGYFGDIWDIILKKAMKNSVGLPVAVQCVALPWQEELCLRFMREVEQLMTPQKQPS
- ASSAY_DETAILS: Determination of FAAH inhibitory activity in rat (rat brain membrane preparations, [3H]-anandamide hydrolysis)
- Type: biochemical
- TEST_SETTINGS: rat brain membrane preparations; read-out: FAAH Inhibition IC50
READOUT: pIC50
The read-out pIC50 is expressed as -log10 of concentration in moles per litre.

- MOLECULE: "CCCn1c(=O)n(C(=O)N2CC(c3ccccc3F)C2)c2cnc(COC)nc21 [Example 661]"
  pIC50: 7.44
- MOLECULE: "CCn1c(=O)n(C(=O)N2CC(c3ccccc3)C2)c2cnc(COC)nc21 [Example 655]"
  pIC50: 8.00
- MOLECULE: "CCCc1ncc2c(n1)n(C(=O)N1CC(c3cccc(F)c3)C1)c(=O)n2C [Example 633]"
  pIC50: 7.72

Query :: What does the data say about its pIC50? Entry: CN(C)C(=O)n1c(=O)n(C)c2cnc(CCOc3cccc(C(F)(F)F)c3)nc21 [compound 642]
Result :: 8.05

Query :: Any idea what pIC50 was measured for CN(C)C(=O)n1c(=O)n(C)c2cnc(CCOc3cccc(F)c3)nc21 [compound 639] ?
Result :: 7.57

Query :: Can you look up the measured pIC50 of CN(C)C(=O)n1c(=O)n(C)c2cnc(CCOc3ccc(C(F)(F)F)cc3)nc21 [Example 638] for me?
Result :: 7.92

Query :: Which pIC50 value belongs to CCn1c(=O)n(C(=O)N2CCC2)c2nc(CCc3ccccc3F)ncc21 [Example 649] ?
Result :: 7.77

Query :: Please look up its pIC50: CCn1c(=O)n(C(=O)N(C)C)c2nc(CCc3cccc(F)c3)ncc21 [Example 644]
Result :: 8.00

====

- TARGET_SYSTEM: FAAH (Rattus norvegicus)
- Construct: Preparation of Rat Brain Membranes Preparations (FAAH Enzyme Solution); from tissue; host or cells: rat cerebrum (brain membrane preparation)
- Sequence (P97612 1-579): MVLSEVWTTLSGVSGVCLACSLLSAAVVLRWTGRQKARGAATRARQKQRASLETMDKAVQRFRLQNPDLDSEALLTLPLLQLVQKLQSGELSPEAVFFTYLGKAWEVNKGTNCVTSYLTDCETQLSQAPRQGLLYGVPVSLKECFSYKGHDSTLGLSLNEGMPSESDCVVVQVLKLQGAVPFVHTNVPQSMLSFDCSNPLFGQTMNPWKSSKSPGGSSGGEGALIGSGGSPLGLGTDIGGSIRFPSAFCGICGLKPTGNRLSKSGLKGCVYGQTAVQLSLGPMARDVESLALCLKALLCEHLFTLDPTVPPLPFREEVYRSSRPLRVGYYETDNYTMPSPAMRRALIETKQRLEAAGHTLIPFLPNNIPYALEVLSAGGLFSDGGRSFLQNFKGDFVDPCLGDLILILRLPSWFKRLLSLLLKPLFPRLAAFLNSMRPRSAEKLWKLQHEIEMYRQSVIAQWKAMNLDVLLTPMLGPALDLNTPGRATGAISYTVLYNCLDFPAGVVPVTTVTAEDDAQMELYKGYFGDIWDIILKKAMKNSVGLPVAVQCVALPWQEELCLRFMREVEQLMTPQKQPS
- ASSAY_DETAILS: Determination of FAAH inhibitory activity in rat (rat brain membrane preparations, [3H]-anandamide hydrolysis)
- Type: biochemical
- TEST_SETTINGS: rat brain membrane preparations; test substance 0.1 nM to 1 μM; read-out: FAAH Inhibition IC50
Quick reference: IC50 of the listed items.
Answer with a number only, understood to be in nM.

- SMILES_INPUT: "CCN(C)C(=O)n1c(=O)n(C)c2nc(C3CCCCC3)ncc21"
  TARGET_SYSTEM: "FAAH (Rattus norvegicus)"
  RESULT_UNITS: "nM"
  IC50: 38
- SMILES_INPUT: "O=C(N1CCCC1)n1c(=O)n(Cc2ccccc2)c2nc(-c3ccccc3)ncc21"
  TARGET_SYSTEM: "FAAH (Rattus norvegicus)"
  RESULT_UNITS: "nM"
  IC50: 74
- SMILES_INPUT: "CN(C)C(=O)n1c(=O)n(C)c2cnc(CCc3cccc(OC(F)(F)F)c3)nc21"
  TARGET_SYSTEM: "FAAH (Rattus norvegicus)"
  RESULT_UNITS: "nM"
  IC50: 10
- SMILES_INPUT: "CC(C)c1ccc(CCc2ncc3c(n2)n(C(=O)N2CCC2)c(=O)n3C)cc1"
  TARGET_SYSTEM: "FAAH (Rattus norvegicus)"
  RESULT_UNITS: "nM"
  IC50: 7

Query :: Look up IC50: CN(C)C(=O)n1c(=O)n(C)c2cnc(CCc3ccccc3C(F)F)nc21
Result :: 28

Query :: Entry under review: CCN(C)C(=O)n1c(=O)n(C)c2nc(Cc3ccc(C(F)(F)F)cc3)ncc21 . Reported IC50?
Result :: 74

Query :: Which value of IC50 has been reported for Cn1c(=O)n(C(=O)N2CCC2)c2nc(-c3cccc(OC(F)(F)F)c3)ncc21 in the records?
Result :: 10
